Reference source for all entries: patent US20100168099A1

Tested on: α2-GABAA receptor
measurementNotes: Ligand-binding assay, radiolabeled flumazenil competition, spinal cord membranes
Design: species or system rat
conditionInfo: 10^−7M; rat spinal cord membranes, radiolabeled flumazenil 1 nM
assayMetric: Affinity for the α2-subunit of the GABAA receptor, % inhibition (%)
Write down the numeric answer in % and omit the unit.

Tested on α2-GABAA receptor: Cc1ccc2c(=O)c(-c3ccccc3)cn(CC(=O)N3CCCC3)c2c1 . Observed Affinity for the α2-subunit of the GABAA receptor, % inhibition: 0.0

Tested on α2-GABAA receptor: Cc1ccc2c(=O)c(-c3ccccc3)cn(CC(=O)N3CCCCC3)c2c1 . Observed Affinity for the α2-subunit of the GABAA receptor, % inhibition: 0.0

Tested on α2-GABAA receptor: Cc1ccc2c(=O)c(-c3ccccc3)cn(CC(=O)c3cccs3)c2c1 . Observed Affinity for the α2-subunit of the GABAA receptor, % inhibition: 8.4

Tested on α2-GABAA receptor: Cc1ccc(-c2nc3ccc(C)cn3c2CC(=O)N(C)C)cc1 [zolpidem, reference compound] . Observed Affinity for the α2-subunit of the GABAA receptor, % inhibition: 19.9

Tested on α2-GABAA receptor: CCCN(CC1CC1)C(=O)Cn1cc(-c2ccccc2)c(=O)c2ccc(C)cc21 . Observed Affinity for the α2-subunit of the GABAA receptor, % inhibition: 28.5
